Tested on: rat mast cells
assay_overview: Ex vivo rat mast cell degranulation and histamine release assay
conditions_used: lowest concentration at which histamine release was observed; rat peritoneal mast cells, 30 min
assay_metric: rMCD histamine release threshold

compound	assay_metric	value_measured
CC[C@H](C)[C@@H]1NC(=O)[C@H](Cc2ccc(O)cc2)NC(=O)[C@H](CC(C)C)NC(=O)[C@@H]2CCCN2C(=O)[C@H](NC(=O)[C@H](CCCNC(=N)N)NC(=O)[C@H](CCCNC(=N)N)NC(=O)[C@H](CCCCN=[N+]=[N-])NC(C)=O)CSCSC[C@@H](C(=O)N[C@@H](CCCNC(=N)N)C(=O)N[C@@H](CCCNC(=N)N)C(N)=O)NC(=O)[C@H](C(C)C)NC(=O)[C@@H]2CCCN2C(=O)[C@H](CC(=O)O)NC(=O)[C@H](Cc2ccc(O)cc2)NC(=O)[C@H](CO)NC1=O [MP-1687]	rMCD histamine release threshold	≥3.7 µM

* * *

assay_overview: in vitro
conditions_used: human, HeLa cell homogenate

compound	bound_operator	half-life at 1 µM [h]
CC[C@H](C)[C@@H]1NC(=O)[C@](C)(Cc2ccccc2)NC(=O)[C@H](CC(C)C)NC(=O)[C@@H]2CCCN2C(=O)[C@H](NC(=O)[C@H](CCCNC(=N)N)NC(=O)[C@H](CCCNC(=N)N)NC(=O)[C@H](CCCCN=[N+]=[N-])NC(C)=O)CSCSC[C@@H](C(=O)N[C@@H](CCCNC(=N)N)C(=O)N[C@@H](CCCNC(=N)N)C(N)=O)NC(=O)[C@H](C(C)C)NC(=O)[C@@H]2CCCN2C(=O)[C@H](CC(=O)O)NC(=O)[C@H](Cc2ccc(O)cc2)NC(=O)[C@H](CO)NC1=O [Compound 16]	>	6.22
CC[C@H](C)[C@@H]1NC(=O)[C@H](Cc2ccc(O)cc2)NC(=O)[C@H](CC(C)C)NC(=O)[C@@H]2CCCN2C(=O)[C@H](NC(=O)[C@H](CCCNC(=N)N)NC(=O)[C@H](CCCNC(=N)N)NC(=O)[C@H](CCCCN=[N+]=[N-])NC(C)=O)CSCSC[C@@H](C(=O)N[C@@H](CCCNC(=N)N)C(=O)N[C@@H](CCCNC(=N)N)C(N)=O)NC(=O)[C@H](C(C)C)NC(=O)[C@]2(C)CCCN2C(=O)[C@H](CC(=O)O)NC(=O)[C@H](Cc2ccc(O)cc2)NC(=O)[C@H](CO)NC1=O [Compound 20]	=	2.23
CC[C@H](C)[C@@H]1NC(=O)[C@H](Cc2ccc(O)cc2)NC(=O)[C@](C)(CC(C)C)NC(=O)[C@@H]2CCCN2C(=O)[C@H](NC(=O)[C@H](CCCNC(=N)N)NC(=O)[C@H](CCCNC(=N)N)NC(=O)[C@H](CCCCN=[N+]=[N-])NC(C)=O)CSCSC[C@@H](C(=O)N[C@@H](CCCNC(=N)N)C(=O)N[C@@H](CCCNC(=N)N)C(N)=O)NC(=O)[C@H](C(C)C)NC(=O)[C@@H]2CCCN2C(=O)[C@H](CC(=O)O)NC(=O)[C@H](Cc2ccc(O)cc2)NC(=O)[C@H](CO)NC1=O [Compound 15]	=	1.9
CC[C@H](C)[C@@H]1NC(=O)[C@H](Cc2ccc(O)cc2)NC(=O)[C@H](CC(C)C)NC(=O)[C@]2(C)CCCN2C(=O)[C@H](NC(=O)[C@H](CCCNC(=N)N)NC(=O)[C@H](CCCNC(=N)N)NC(=O)[C@H](CCCCN=[N+]=[N-])NC(C)=O)CSCSC[C@@H](C(=O)N[C@@H](CCCNC(=N)N)C(=O)N[C@@H](CCCNC(=N)N)C(N)=O)NC(=O)[C@H](C(C)C)NC(=O)[C@@H]2CCCN2C(=O)[C@H](CC(=O)O)NC(=O)[C@H](Cc2ccc(O)cc2)NC(=O)[C@H](CO)NC1=O [Compound 14]	=	2.37
